Ok so here's the combined literature set: pIC50 for Cannabinoid receptor 1 (Rattus norvegicus, UniProt P20272).
pIC50: −log10 of the molar value.

# compound, pIC50
rows = [
    ("Cc1cccc(N2CCN(C(=O)c3nn(-c4ccc(Cl)cc4Cl)c(-c4ccc(Cl)cc4)c3Cn3cncn3)CC2)c1C", 7.94),
    ("O=C(NC1CCCC1)c1nn(-c2ccc(Cl)cc2Cl)c(-c2ccc(Cl)cc2)c1Cn1cncn1", 8.16),
    ("CCOC(=O)c1ccc(-c2c(CC)c(C(=O)NC(C)(C)c3nnnn3C)nn2-c2ccc(Cl)cc2Cl)cc1", 7.77),
    ("CCCCC(C)c1nnc(-c2nn(-c3ccc(Cl)cc3Cl)c(-c3ccc(Cl)cc3)c2C)o1 (stereo not drawn)", 7.82),
    ("Cc1cccc(N2CCN(C(=O)c3nn(-c4ccccc4Cl)c(-c4ccc(Cl)cc4)c3Cn3cncn3)CC2)c1C", 8.22),
    ("Cc1nnc(-c2c(-c3nnc(C4(C(F)(F)F)CC4)s3)nn(-c3ccc(Cl)cc3Cl)c2-c2ccc(Cl)cc2)s1", 8.13),
    ("O=C(NCc1ccccc1)c1nn(-c2ccccc2Cl)c(-c2ccc(Cl)cc2)c1Cn1cncn1", 7.85),
    ("CCc1c(-c2nnc(C(C)(C)C)o2)nn(-c2ccc(Cl)cc2Cl)c1-c1ccc(Cl)cc1", 8.18),
    ("Cc1c(-c2nnc(C3(C(F)(F)F)CCC3)s2)nc(-c2ccc(Cl)cc2Cl)n1-c1ccc(Cl)cc1", 8.02),
    ("CCC(C)c1nnc(-c2nn(-c3ccc(Cl)cc3Cl)c(-c3ccc(Cl)cc3)c2C)o1 (stereo not drawn)", 7.98),
    ("CCCCNc1cc(N[C@@H](C)[C@@H](Cc2ccc(Cl)cc2)c2cccc(Br)c2)nc(C)n1", 7.09),
    ("Cc1nnc(-c2c(-c3nnc(C4(c5ccc(Cl)cc5)CC4)s3)nn(-c3ccc(Cl)cc3Cl)c2-c2ccc(Br)cc2)o1", 8.35),
    ("O=C(NC1(c2ccccc2)CC1)c1nn(-c2ccccc2Cl)c(-c2ccc(Cl)cc2)c1Cn1cncn1", 8.24),
    ("C[C@H](Nc1cc(N2CCCCC2)ncn1)[C@@H](Cc1ccc(Cl)cc1)c1cccc(Br)c1", 7.68),
    ("CC(C)(C)NC(=O)c1nn(-c2ccc(Cl)cc2Cl)c(-c2ccc(Cl)cc2)c1Cn1cncn1", 8.31),
    ("Clc1ccc(-n2nc(-c3nnc(C4(c5ccccc5)CC4)o3)c(Cn3cncn3)c2-c2ccc(Br)cc2)c(Cl)c1", 9.02),
    ("Cc1c(C(=O)NC(C)(C)c2nnnn2C)nn(-c2ccc(Cl)cc2Cl)c1-c1ccc(Cl)cc1", 6.84),
    ("Cc1c(-c2nnc(CC(C)C)s2)nc(-c2ccc(Cl)cc2Cl)n1-c1ccc(Cl)cc1", 7.55),
]

----------
pIC50: −log10 of the molar value.
Ok so here's the combined literature set: pIC50 for Cannabinoid receptor 1 (Rattus norvegicus).
Answer False if pIC50 is under 8, and True if it is 8 or more.

# molecule, system-name, class-assignment
rows = [
    ("O=C(NC1CCCCC1)N1CCN(C(c2ccc(Br)cc2)c2ccccc2Cl)CC1 (configuration not stated)", "Cannabinoid receptor 1 (Rattus norvegicus)", "False"),
    ("O=C(NCC1CCCCC1)c1nn(-c2ccc(Cl)cc2Cl)c(-c2ccc(Br)cc2)c1Cn1cncn1", "Cannabinoid receptor 1 (Rattus norvegicus)", "False"),
    ("CC(C)CCNc1cc(N[C@@H](C)[C@@H](Cc2ccc(Cl)cc2)c2cccc(Br)c2)ncn1", "Cannabinoid receptor 1 (Rattus norvegicus)", "False"),
    ("CCCCCCN(CCCCCC)C(=O)Cc1c(-c2ccc(F)cc2)[nH]c2ccc(Cl)cc12", "Cannabinoid receptor 1 (Rattus norvegicus)", "False"),
    ("CN(C)C(=O)Cc1c(-c2ccccc2)[nH]c2ccccc12", "Cannabinoid receptor 1 (Rattus norvegicus)", "False"),
    ("CC(NC(=O)c1nn(-c2ccccc2Cl)c(-c2ccc(Cl)cc2)c1Cn1cncn1)c1ccc(Br)cc1 (configuration not stated)", "Cannabinoid receptor 1 (Rattus norvegicus)", "True"),
    ("Cc1nnc(-c2c(-c3nnc(C4(c5ccc(Cl)cc5)CC4)s3)nn(-c3ccc(Cl)cc3Cl)c2-c2ccc(Cl)cc2)o1", "Cannabinoid receptor 1 (Rattus norvegicus)", "True"),
    ("Cc1nnc(-c2c(-c3nnc(C(C)(C)C)s3)nn(-c3ccc(Cl)cc3Cl)c2-c2ccc(Br)cc2)s1", "Cannabinoid receptor 1 (Rattus norvegicus)", "True"),
    ("CCCCc1cc(N[C@@H](C)[C@@H](Cc2ccc(Cl)cc2)c2cccc(Br)c2)ncn1", "Cannabinoid receptor 1 (Rattus norvegicus)", "False"),
    ("CCCCCCNC(=O)Cc1c(-c2ccc(F)cc2)[nH]c2ccccc12", "Cannabinoid receptor 1 (Rattus norvegicus)", "False"),
    ("CCCN(CCC)C(=O)Cc1c(-c2cccc(Cl)c2)[nH]c2ccccc12", "Cannabinoid receptor 1 (Rattus norvegicus)", "False"),
    ("Cc1nnc(-c2c(-c3nnc(C4(c5ccc(Cl)cc5)CC4)s3)nn(-c3ccc(Cl)cc3Cl)c2-c2ccc(Br)cc2)s1", "Cannabinoid receptor 1 (Rattus norvegicus)", "True"),
]

----------
pIC50: −log10 of the molar value.
Ok so here's the combined literature set: pIC50 for Cannabinoid receptor 1 (Rattus norvegicus, UniProt P20272).

# compound, system-name, comparison-sign, pIC50
data = [
    ("CCCCCCN(CCCCCC)C(=O)Cc1c(-c2ccccc2)[nH]c2ccccc12", "Cannabinoid receptor 1 (Rattus norvegicus, UniProt P20272)", "<", 6.00),
    ("CCCCCCCCN(CCCCCCCC)C(=O)Cc1c(-c2ccccc2)[nH]c2ccccc12", "Cannabinoid receptor 1 (Rattus norvegicus, UniProt P20272)", "<", 6.00),
    ("Cc1nnc(-c2c(-c3nnc(C4(C(F)(F)F)CC4)s3)nn(-c3ccc(Cl)cc3Cl)c2-c2ccc(Br)cc2)o1", "Cannabinoid receptor 1 (Rattus norvegicus, UniProt P20272)", "=", 8.31),
    ("CCCN(CCC)C(=O)Cc1c2n(c3ccccc13)CCCc1ccccc1-2", "Cannabinoid receptor 1 (Rattus norvegicus, UniProt P20272)", "<", 6.00),
    ("Cc1ccccc1C(c1ccc(Cl)cc1)N1CCN(C(=O)NC2CCCCC2)CC1 (stereo unspecified)", "Cannabinoid receptor 1 (Rattus norvegicus, UniProt P20272)", "=", 6.61),
    ("Cc1nnc(-c2c(-c3nnc(C4(C(F)(F)F)CC4)o3)nn(-c3ccc(Cl)cc3Cl)c2-c2ccc(Br)cc2)s1", "Cannabinoid receptor 1 (Rattus norvegicus, UniProt P20272)", "=", 8.76),
    ("O=C(NC1CCCCCC1)c1nn(-c2ccccc2Cl)c(-c2ccc(Br)cc2)c1Cn1cncn1", "Cannabinoid receptor 1 (Rattus norvegicus, UniProt P20272)", "=", 8.57),
    ("O=C(Cc1c(-c2ccc(F)cc2)[nH]c2ccccc12)Nc1ccccc1Br", "Cannabinoid receptor 1 (Rattus norvegicus, UniProt P20272)", "<", 6.00),
    ("Cc1nnc(-c2c(-c3nnc(C(C)(C)C)o3)nn(-c3ccc(Cl)cc3Cl)c2-c2ccc(Cl)cc2)s1", "Cannabinoid receptor 1 (Rattus norvegicus, UniProt P20272)", "=", 8.55),
    ("O=C1Cc2c(-c3ccccc3)[nH]c3cccc(c23)N1", "Cannabinoid receptor 1 (Rattus norvegicus, UniProt P20272)", "<", 6.00),
    ("CCCN(CCC)C(=O)Cc1c(-c2ccc(Cl)cc2)[nH]c2ccccc12", "Cannabinoid receptor 1 (Rattus norvegicus, UniProt P20272)", "<", 6.00),
]

----------
pIC50: −log10 of the molar value.
Ok so here's the combined literature set: pIC50 for Cannabinoid receptor 1 (Rattus norvegicus, UniProt P20272).
measured-metric: pIC50

# chemical-structure, comparison-sign, assay-value
measured = [
    ("Cc1nc(NC2CCCCCC2)cc(N[C@@H](C)[C@@H](Cc2ccc(Cl)cc2)c2cccc(Br)c2)n1", "=", 7.18),
    ("CCc1c(C(=O)NC(C)(C)c2nnnn2C)nn(-c2ccc(Cl)cc2Cl)c1-c1ccc(C#N)cc1", "=", 7.66),
    ("Cn1nnnc1C(C)(C)NC(=O)c1nn(-c2ccc(Cl)cc2Cl)c2c1CCCc1cc(Cl)ccc1-2", "=", 7.51),
    ("Cc1nc(N[C@@H](C)[C@@H](Cc2ccc(Cl)cc2)c2cccc(Br)c2)cc(N2CCCCC2)n1", "=", 7.54),
    ("O=C(Cc1c(-c2ccccc2)[nH]c2ccccc12)N1CCCC1", "<", 6.00),
    ("Cc1ncc(C(C)(C)NC(=O)c2nn(-c3ccc(Cl)cc3Cl)c(-c3ccc(Cl)cc3)c2C)s1", "=", 7.92),
    ("CCCCN(CCCC)C(=O)Cc1c(-c2ccc(F)cc2)[nH]c2ccccc12", "<", 6.00),
    ("CCCCOc1cc(N[C@@H](C)[C@@H](Cc2ccc(Cl)cc2)c2cccc(Br)c2)ncn1", "=", 7.12),
    ("Cc1c(-c2nnc(C3(C(F)(F)F)CC3)o2)nc(-c2ccc(Cl)cc2Cl)n1-c1ccc(Cl)cc1", "=", 7.26),
    ("CC(C)(C)c1nnc(-c2nn(-c3ccc(Cl)cc3Cl)c(-c3ccc(Cl)cc3)c2C(N)=O)o1", "=", 7.62),
    ("Cc1c(C(=O)NC(C)(C)c2noc(C(F)(F)F)n2)nn(-c2ccc(Cl)cc2Cl)c1-c1ccc(Cl)cc1", "=", 8.52),
    ("Cc1nnc(-c2c(-c3nnc(C4(c5ccc(Cl)cc5)CC4)s3)nn(-c3ccc(Cl)cc3Cl)c2-c2ccc(Cl)cc2)s1", "=", 8.52),
]
